- system under test: human NOX4 (Homo sapiens, UniProt Q9NPH5)
- Construct: expressed in transfected cells; membrane fraction used
- Sequence (Q9NPH5 whole entry): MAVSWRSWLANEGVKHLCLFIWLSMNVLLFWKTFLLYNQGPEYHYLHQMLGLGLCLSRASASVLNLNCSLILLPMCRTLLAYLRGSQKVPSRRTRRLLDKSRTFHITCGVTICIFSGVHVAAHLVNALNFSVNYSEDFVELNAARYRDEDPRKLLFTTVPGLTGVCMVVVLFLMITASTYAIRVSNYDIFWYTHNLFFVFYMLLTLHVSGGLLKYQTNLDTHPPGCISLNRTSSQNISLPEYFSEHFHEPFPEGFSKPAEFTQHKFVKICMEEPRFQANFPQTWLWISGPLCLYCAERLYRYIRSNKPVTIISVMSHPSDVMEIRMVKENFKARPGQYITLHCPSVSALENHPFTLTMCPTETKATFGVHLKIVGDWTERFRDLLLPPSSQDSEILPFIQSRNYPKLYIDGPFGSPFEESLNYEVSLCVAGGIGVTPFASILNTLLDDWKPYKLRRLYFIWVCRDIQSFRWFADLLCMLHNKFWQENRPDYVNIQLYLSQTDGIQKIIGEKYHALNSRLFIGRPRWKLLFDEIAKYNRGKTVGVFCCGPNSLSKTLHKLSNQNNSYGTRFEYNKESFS
- Sequence (P13498 whole entry partner): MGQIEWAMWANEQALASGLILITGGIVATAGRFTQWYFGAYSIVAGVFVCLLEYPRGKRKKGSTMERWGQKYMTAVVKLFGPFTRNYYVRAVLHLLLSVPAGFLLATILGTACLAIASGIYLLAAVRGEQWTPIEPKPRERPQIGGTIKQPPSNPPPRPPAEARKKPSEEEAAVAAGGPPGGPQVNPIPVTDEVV
- experiment description: Cell free membrane based in vitro NOX4 assay: H2O2 production by membranes expressing human NOX4, measured with Amplex Red
- Format: biochemical
- experimental setup: 1.0 μM compound, read-out: Percentage inhibition at 1.0 μM
For each of the molecules below, state its inhibition at 1 µM.
One number for each entry, in %.

Cn1nc(CO)c2c(=O)c(O)c(-c3ccccc3Cl)[nH]c21 = 87.7

I have 2 molecules here; please give me inhibition at 1 µM for each one.
1. CCn1nc(C)c2c(=O)c(O)c(-c3ccccc3Cl)[nH]c21
2. Cc1nn(C)c2[nH]c(-c3ccc(Cl)c(C(F)(F)F)c3)c(O)c(=O)c12

Marked response:
1. 89.7
2. 88.9

---

- system under test: human NOX4 (Homo sapiens)
- Construct: expressed in transfected cells; membrane fraction used
- experiment description: Cell free membrane based in vitro NOX4 assay: H2O2 production by membranes expressing human NOX4, measured with Amplex Red
- Format: biochemical
- experimental setup: 10.0 μM compound, read-out: Percentage inhibition at 10.0 μM
Task for the reader: assign each of the following compounds its reported inhibition at 10 µM.
Numbers only, in %.

CS(=O)(=O)N1CCC(c2nn(C3CC3)c3[nH]c(-c4c(F)cccc4F)c(O)c(=O)c23)CC1 [Example 186] = 81.2
Cn1nc(C2CCN(S(C)(=O)=O)CC2)c2c(=O)c(O)c(-c3c(F)cccc3F)[nH]c21 [Example 185] = 78.2
Cc1nn(C)c2[nH]c(-c3ccc(C(F)(F)F)c(F)c3)c(O)c(=O)c12 [Example 22] = 80.9
CCc1nn(CC2CCOCC2)c2[nH]c(-c3c(F)cccc3F)c(O)c(=O)c12 [Example 207] = 88.2
Cn1nc(CN2CCN(C3COC3)CC2)c2c(=O)c(O)c(-c3c(F)cccc3F)[nH]c21 [Example 219] = 89.2
O=c1c(O)c(-c2c(F)cccc2F)[nH]c2c1c(CO)nn2CC1CCOCC1 [Example 215] = 87.3

State the recorded inhibition at 10 µM for every item in the following list.
1. Cn1nc(C(F)F)c2c(=O)c(O)c(-c3ccccc3Cl)[nH]c21 [Example 85]
2. Cc1nn(C2CCCC2)c2[nH]c(-c3c(F)cccc3F)c(O)c(=O)c12 [Example 127]
3. CCn1nc(C(F)(F)F)c2c(=O)c(O)c(-c3c(F)cccc3F)[nH]c21 [Example 100]
4. CCc1nn(CCN2CCOCC2=O)c2[nH]c(-c3c(F)cccc3F)c(O)c(=O)c12 [Example 168]

Marked response:
[88, 89.5, 84.8, 93.5]

Working through the 2 compounds below one at a time, give inhibition at 10 µM for each.
1. Cc1c2oc(-c3ccccc3Cl)c(O)c(=O)c2nn1C [Example 227]
2. COc1ccc(-n2nc(C)c3c(=O)c(O)c(-c4c(F)cccc4F)[nH]c32)cc1 [Example 29]

Marked response:
1. 16
2. 95.6

Looking up Cn1nc(C(F)F)c2c(=O)c(O)c(-c3c(F)cccc3F)[nH]c21 [Example 86] , I see its inhibition at 10 µM listed as 89.8

---

- system under test: human NOX4 (Homo sapiens)
- Construct: expressed in transfected cells; membrane fraction used
- experiment description: Cell free membrane based in vitro NOX4 assay: H2O2 production by membranes expressing human NOX4, measured with Amplex Red
- Format: biochemical
- experimental setup: 1.0 μM compound, read-out: Percentage inhibition at 1.0 μM
measurement name: inhibition at 1 µM (%)
Give bare numbers, in %.

COc1ccc(-c2[nH]c3c(c(C)nn3-c3ccc(F)c(F)c3)c(=O)c2O)c(F)c1 = 85
Cc1nn(C2CCC(F)(F)CC2)c2[nH]c(-c3c(F)cccc3F)c(O)c(=O)c12 = 89.5

# evaluate next
Bench note, human NOX4 (Homo sapiens): "Cc1nn(-c2cccc(F)c2)c2[nH]c(-c3ccccc3Cl)c(O)c(=O)c12" , inhibition at 1 µM reads 100

Values from patent US20200247800A1
